TARGET_UNDER_TEST: Androgen receptor (Homo sapiens)
MEASUREMENT_DESCRIPTION: qHTS assay for small molecule antagonists of androgen receptor signaling (AID 588516)
COND: AR-UAS-bla HEK293, beta-lactamase ratio, antagonist mode, 16 h; series mostly up to 76.8 µM
Results filed as inconclusive are left out. Activity calls are given as the source filed them. The call rests on the fitted dose curve; in most records, active means well fitted curve in the direction sought with a large enough effect in the signal ratio, with a control signal flat (not every such curve was filed as active); inconclusive means small, poorly fitted or top-dose-only effect, or effect the other way, or a change in a side signal; inactive means no such curve, though single readings can be large or run the other way; the % refers to the signal ratio.
Classes used: yes (1) (active), no (0) (inactive)

[
  {
    "COMPOUND": "O=C(Nc1ccccc1)Nc1ccnc(Cl)c1",
    "CAT": "no (0)"
  },
  {
    "COMPOUND": "CCOP(=O)(NC(C)C)Oc1ccc(S(C)=O)c(C)c1 (stereo not drawn)",
    "CAT": "no (0)"
  },
  {
    "COMPOUND": "c1cc2c3c(cccc3c1)CC2",
    "CAT": "no (0)"
  },
  {
    "COMPOUND": "COP(=O)(OC)SCn1c(=O)oc2cc(Cl)cnc21",
    "CAT": "no (0)"
  },
  {
    "COMPOUND": "CC(C)(C)OOC(C)(C)c1ccc(C(C)(C)OOC(C)(C)C)cc1",
    "CAT": "no (0)"
  },
  {
    "COMPOUND": "CC(C)N(C(=O)CCl)c1ccccc1",
    "CAT": "yes (1)"
  },
  {
    "COMPOUND": "COCc1cnc(C2=NC(C)(C(C)C)C(=O)N2)c(C(=O)O)c1 (stereo not drawn)",
    "CAT": "no (0)"
  },
  {
    "COMPOUND": "[Ga]#[As]",
    "CAT": "no (0)"
  }
]
